Just for reference, patent US20220041559A1 is where these values come from.

- Experiment Description: Pharmacokinetics in CD1 mice, iv and po
- Assay type: in vivo
- Assay Context: mouse, plasma, po, 3 mg/kg
Quantity Kind: Cmax (nM)
Write the value in nM as a bare number.

# Cmax (molecule: CN1CCC(c2ccc(C(=O)Nc3n[nH]c4nc(Nc5ccccc5F)ccc34)cc2)CC1 ) is 331

Now consider a different molecule.
# Cmax (molecule: CN1CCC(c2ccc(C(=O)Nc3n[nH]c4cc(Nc5ccccc5F)ccc34)cc2)CC1 ) is 178

----------
Reported values of pIC50 for individual entries
- Assayed System: UniProtKB P00533
- Experiment Description: ADP-Glo in vitro kinase assay, EGFR kinase inhibition
- Assay type: biochemical
- Parameters: purchased SignalChem
- Assay Context: ATP 10 μM, 30 minutes at room temperature
pIC50: −log10 of the molar value.

# pIC50 (molecule: CN1CCC(c2ccc(C(=O)Nc3n[nH]c4cc(Nc5c(F)cccc5Cl)ccc34)cc2)CC1 [Compound 1] ) is 6.99

# pIC50 (molecule: CN1CCC(c2ccc(C(=O)Nc3n[nH]c4cc(Nc5ccccc5Cl)ccc34)cc2)CC1 [Compound 14] ) is ≤ 6.00

Now consider a different molecule.
# pIC50 (molecule: Cc1ccc(Nc2ccc3c(NC(=O)c4ccc(C5CCN(C)CC5)cc4)n[nH]c3n2)cc1 [Compound 23] ) is ≤ 6.00

----------
- Assayed System: FYN (Homo sapiens)
- Sequence (P06241 whole entry): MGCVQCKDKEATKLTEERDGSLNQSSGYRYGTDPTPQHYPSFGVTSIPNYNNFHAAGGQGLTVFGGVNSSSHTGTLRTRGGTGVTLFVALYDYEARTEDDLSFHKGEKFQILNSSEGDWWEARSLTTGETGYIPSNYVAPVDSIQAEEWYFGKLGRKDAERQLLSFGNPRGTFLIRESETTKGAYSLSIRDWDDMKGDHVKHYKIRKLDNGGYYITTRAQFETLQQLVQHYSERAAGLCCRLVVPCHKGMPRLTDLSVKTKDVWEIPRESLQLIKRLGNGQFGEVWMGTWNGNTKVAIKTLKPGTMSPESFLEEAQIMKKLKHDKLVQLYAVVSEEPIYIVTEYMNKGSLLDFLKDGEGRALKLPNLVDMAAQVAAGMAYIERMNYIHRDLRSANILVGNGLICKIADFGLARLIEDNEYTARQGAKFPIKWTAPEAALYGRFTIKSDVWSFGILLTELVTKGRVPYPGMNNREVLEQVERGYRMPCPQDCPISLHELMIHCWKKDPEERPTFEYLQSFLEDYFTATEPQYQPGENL
Quantity Kind: IC50 (nM)
Write the value in nM as a bare number.

Consider the worked cases shown below.
# IC50 (compound: CN1CCC(Oc2ccc(C(=O)Nc3n[nH]c4cc(Nc5ccccc5F)ccc34)cc2)CC1 [Compound 35] ) is 145

# IC50 (compound: CN1CCN(c2ccc(C(=O)Nc3n[nH]c4cc(Nc5ccccc5F)ccc34)cc2)CC1 [Compound 34] ) is 147

Next:
# IC50 (compound: CN1CCC(c2ccc(C(=O)Nc3n[nH]c4nc(Nc5cccc(F)c5F)ccc34)cc2)CC1 [Compound 20] ) is 209

----------
- Assayed System: EGFR (Homo sapiens, UniProt P00533)
- Sequence (P00533 25-1210): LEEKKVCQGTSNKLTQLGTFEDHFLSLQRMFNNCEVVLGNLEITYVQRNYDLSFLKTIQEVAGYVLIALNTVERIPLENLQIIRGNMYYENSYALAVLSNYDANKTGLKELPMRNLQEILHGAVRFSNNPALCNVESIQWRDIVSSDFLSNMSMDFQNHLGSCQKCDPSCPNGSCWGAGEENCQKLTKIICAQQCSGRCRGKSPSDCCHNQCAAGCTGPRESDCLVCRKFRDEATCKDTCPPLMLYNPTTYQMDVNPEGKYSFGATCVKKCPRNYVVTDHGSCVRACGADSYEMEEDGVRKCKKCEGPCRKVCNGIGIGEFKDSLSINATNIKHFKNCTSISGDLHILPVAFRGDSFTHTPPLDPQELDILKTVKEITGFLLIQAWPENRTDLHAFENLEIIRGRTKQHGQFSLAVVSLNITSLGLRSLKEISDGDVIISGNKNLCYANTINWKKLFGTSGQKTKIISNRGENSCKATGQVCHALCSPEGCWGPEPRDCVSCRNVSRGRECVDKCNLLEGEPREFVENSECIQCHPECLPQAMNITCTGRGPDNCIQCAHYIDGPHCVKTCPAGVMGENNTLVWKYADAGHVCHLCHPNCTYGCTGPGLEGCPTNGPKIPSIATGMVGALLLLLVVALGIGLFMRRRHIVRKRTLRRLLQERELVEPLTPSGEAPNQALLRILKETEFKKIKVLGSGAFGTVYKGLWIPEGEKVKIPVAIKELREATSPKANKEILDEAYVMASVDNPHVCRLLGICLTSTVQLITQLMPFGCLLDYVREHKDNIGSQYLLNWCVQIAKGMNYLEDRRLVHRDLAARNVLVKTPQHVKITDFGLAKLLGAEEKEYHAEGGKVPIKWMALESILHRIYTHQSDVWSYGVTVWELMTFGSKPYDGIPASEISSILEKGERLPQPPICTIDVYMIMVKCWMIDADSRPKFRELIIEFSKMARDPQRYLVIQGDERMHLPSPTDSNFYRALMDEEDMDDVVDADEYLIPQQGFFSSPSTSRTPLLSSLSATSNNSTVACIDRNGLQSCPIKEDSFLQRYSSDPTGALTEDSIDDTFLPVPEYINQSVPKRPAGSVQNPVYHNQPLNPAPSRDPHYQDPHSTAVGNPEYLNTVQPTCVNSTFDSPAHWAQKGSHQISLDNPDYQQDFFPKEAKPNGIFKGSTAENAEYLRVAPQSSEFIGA
- Experiment Description: ADP-Glo in vitro kinase assay, EGFR kinase inhibition
- Format: biochemical
- Parameters: purchased SignalChem
- Assay Context: ATP 10 μM, 30 minutes at room temperature
Reported values of pIC50 for individual entries
Remember the convention: pIC50 equals -log10 of concentration in molar.

# pIC50 (molecule: CN1CCC(c2ccc(C(=O)Nc3n[nH]c4nc(Nc5ccccc5F)ccc34)cc2)CC1 ) is 8.22

# pIC50 (molecule: CN1CCC(Oc2ccc(C(=O)Nc3n[nH]c4nc(Nc5ccccc5F)ccc34)cc2)CC1 ) is 7.62

# pIC50 (molecule: CN1CCC(c2ccc(C(=O)Nc3n[nH]c4cc(Nc5ccccc5F)ccc34)cc2)CC1 ) is 6.65

Next:
# pIC50 (molecule: CN1CCC(c2ccc(C(=O)Nc3n[nH]c4nc(Nc5cccc(F)c5F)ccc34)cc2)CC1 ) is 8.05

# pIC50 (molecule: Cc1ccc(Nc2ccc3c(NC(=O)c4ccc(C5CCN(C)CC5)cc4)n[nH]c3n2)c(F)c1 ) is 6.81

----------
- Assayed System: human FynB (Homo sapiens)
- Experiment Description: Inhibition of FynB-induced Tau(Y18)-phosphorylation (cell-based assay, HEK293)
- Assay Context: HEK293 over-expressing FynB and Tau 0N4R; incubation 6 or 24 hours; ELISA
Reported values of pIC50 for individual entries
Remember the convention: pIC50 equals -log10 of concentration in molar.

# pIC50 (compound: CN1CCC(c2ccc(C(=O)Nc3n[nH]c4nc(Nc5cccc(F)c5F)ccc34)cc2)CC1 [Compound 20] ) is 6.63

# pIC50 (compound: CN1CCC(c2ccc(C(=O)Nc3n[nH]c4nc(Nc5ccccc5F)ccc34)cc2)CC1 [Compound 5] ) is 6.52

Now consider a different compound.
# pIC50 (compound: CC(=O)N1CCN(c2ccc(C(=O)Nc3n[nH]c4nc(Nc5ccccc5F)ccc34)cc2)CC1 [Compound 52] ) is 6.19
